Observed pIC50 for c-Cbl (Homo sapiens (Human), UniProt P22681), reported per entry below.
Kindly note that pIC50 refers to -log10 of the concentration in mol/L and answer with the value alone.

Below, 4 molecules whose answers are already recorded.
[[record]]
molecule = "CO[C@H]1C[C@](c2cc(NC3CCCC3)cc(N3Cc4c(cc(CNC5(C)CCC5)cc4C(F)(F)F)C3=O)c2)(c2nncn2C)C1 [Compound 209]"
assay_result = 6.49

[[record]]
molecule = "Cn1cnnc1[C@@H](c1cccc(N2Cc3c(cc(CNCC4(C)CC4)cc3C(F)(F)F)C2=O)c1)C1COC1 (single isomer, unassigned) [Compound 465]"
assay_result = 7.92

[[record]]
molecule = "CO[C@H]1C[C@](c2cccc(N3Cc4c(cc(CNC5(C)CC(F)(F)C5)cc4C(F)(F)F)C3=O)c2)(c2nncn2C)C1 [Compound 471]"
assay_result = 7.44

[[record]]
molecule = "CC(C)[C@H]1CN(C)CCN1Cc1cc2c(c(C(F)(F)F)c1)CN(c1cccc(C3(c4nncn4C)CC4(COC4)C3)c1)C2=O [Compound 41]"
assay_result = 7.23


Please state recorded pIC50 (tested on c-Cbl (Homo sapiens (Human), UniProt P22681)) of C[C@@H](NC1(C)CCC1)c1cc2c(c(C(F)(F)F)c1)CN(c1cccc(C(c3nncn3C)C3COC3)c1)C2=O (stereo partly drawn) [Compound 284]
Sequence (P22681 47-435): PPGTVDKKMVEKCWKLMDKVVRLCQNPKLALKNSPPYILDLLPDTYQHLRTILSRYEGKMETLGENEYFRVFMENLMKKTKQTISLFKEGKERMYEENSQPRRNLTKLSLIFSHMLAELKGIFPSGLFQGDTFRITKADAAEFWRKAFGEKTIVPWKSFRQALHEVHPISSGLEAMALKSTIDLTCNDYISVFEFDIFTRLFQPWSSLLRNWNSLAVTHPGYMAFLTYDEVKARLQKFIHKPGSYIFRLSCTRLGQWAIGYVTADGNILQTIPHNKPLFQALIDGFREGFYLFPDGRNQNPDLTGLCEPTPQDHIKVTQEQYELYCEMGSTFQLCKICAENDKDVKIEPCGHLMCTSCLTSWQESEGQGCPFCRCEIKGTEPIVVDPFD
5.43

Please state recorded pIC50 (tested on c-Cbl (Homo sapiens (Human), UniProt P22681)) of CC(=O)C1CC([C@H](c2cccc(N3Cc4c(cc(CNC5(C)CCC5)cc4C(F)(F)F)C3=O)c2)c2nncn2C)C1 (single isomer, unassigned) [Compound 382]
6.35
